# System: Anti-OAcGD3 antibody
# assay explanation: ELISA of immobilized MAP-form peptides with control anti-OAcGD3 antibody
# Type: binding
# condition set: MAP form 100 ng/well; Serum % 100%
measured quantity: ELISA absorbance, Anti-OAcGD3 antibody
One number for each entry.

Some solved cases for reference:
I am curious: what ELISA absorbance, Anti-OAcGD3 antibody value has been reported for LAPPRPRSELVFLSV (LAPPRPRSQLVFLSV) [GD3R1, tested as phage clone, MAP form or peptide] ? 0.053

Repeat for the following sequence: PHFDSLLYPCELLGC (PHFDSLLYPCQLLGC) [GD3R2, tested as phage clone, MAP form or peptide] 0.038

Now try GLAPPDYAERFELLS [GD3R3, tested as phage clone, MAP form or peptide] . 0.044

Moving on to the next sequence.
Form field: reported ELISA absorbance, Anti-OAcGD3 antibody of RHAYRSMAEWGFLYS (RHAYRSMAQWGFLYS) [GD3R4, tested as phage clone, MAP form or peptide] 0.061

Reference for the values: patent US8017584B2
